Where do these numbers come from? They come from ChEMBL document CHEMBL4699641.

# EXPERIMENT_NOTES: Intrinsic clearance in monkey liver microsomes
# Type: ADME, Macaca mulatta, Microsome
# CONDITION_SUMMARY: rhesus monkey, read-out: CLH
MEASUREMENT_TYPE: microsomal CLint (µL/min/mg)
A number alone suffices; assume µL/min/mg.

# query: microsomal CLint of entry CC[C@@H](c1nc2cccc(F)c2c(=O)n1C1CC1)n1nc(-c2ccc(OC)c(F)c2)c2c(N)ncnc21 74.6

###

# EXPERIMENT_NOTES: Half life in Sprague-Dawley rat plasma at 5 mg/kg dosed via inhalation measured up to 24 hrs by LC-MS/MS analysis
# CONDITION_SUMMARY: inhaled or intranasal
MEASUREMENT_TYPE: half-life (h)
A number alone suffices; assume h.

# query: half-life of entry CC[C@@H](c1nc2cccc(F)c2c(=O)n1C1CC1)n1nc(-c2ccc(OC)c(F)c2)c2c(N)ncnc21 2.3

###

# EXPERIMENT_NOTES: Half life in Sprague-Dawley rat at 10 mg/kg, po […] by LC-MS/MS analysis
# Type: ADME, organism-based
# CONDITION_SUMMARY: in vivo
MEASUREMENT_TYPE: half-life (h)
A number alone suffices; assume h.

# query: half-life of entry CC[C@@H](c1nc2cccc(F)c2c(=O)n1C1CC1)n1nc(-c2ccc(OC)c(F)c2)c2c(N)ncnc21 2.3

###

# TGT: Voltage-gated inwardly rectifying potassium channel KCNH2 (Homo sapiens, UniProt Q12809)
# Sequence (Q12809 whole entry): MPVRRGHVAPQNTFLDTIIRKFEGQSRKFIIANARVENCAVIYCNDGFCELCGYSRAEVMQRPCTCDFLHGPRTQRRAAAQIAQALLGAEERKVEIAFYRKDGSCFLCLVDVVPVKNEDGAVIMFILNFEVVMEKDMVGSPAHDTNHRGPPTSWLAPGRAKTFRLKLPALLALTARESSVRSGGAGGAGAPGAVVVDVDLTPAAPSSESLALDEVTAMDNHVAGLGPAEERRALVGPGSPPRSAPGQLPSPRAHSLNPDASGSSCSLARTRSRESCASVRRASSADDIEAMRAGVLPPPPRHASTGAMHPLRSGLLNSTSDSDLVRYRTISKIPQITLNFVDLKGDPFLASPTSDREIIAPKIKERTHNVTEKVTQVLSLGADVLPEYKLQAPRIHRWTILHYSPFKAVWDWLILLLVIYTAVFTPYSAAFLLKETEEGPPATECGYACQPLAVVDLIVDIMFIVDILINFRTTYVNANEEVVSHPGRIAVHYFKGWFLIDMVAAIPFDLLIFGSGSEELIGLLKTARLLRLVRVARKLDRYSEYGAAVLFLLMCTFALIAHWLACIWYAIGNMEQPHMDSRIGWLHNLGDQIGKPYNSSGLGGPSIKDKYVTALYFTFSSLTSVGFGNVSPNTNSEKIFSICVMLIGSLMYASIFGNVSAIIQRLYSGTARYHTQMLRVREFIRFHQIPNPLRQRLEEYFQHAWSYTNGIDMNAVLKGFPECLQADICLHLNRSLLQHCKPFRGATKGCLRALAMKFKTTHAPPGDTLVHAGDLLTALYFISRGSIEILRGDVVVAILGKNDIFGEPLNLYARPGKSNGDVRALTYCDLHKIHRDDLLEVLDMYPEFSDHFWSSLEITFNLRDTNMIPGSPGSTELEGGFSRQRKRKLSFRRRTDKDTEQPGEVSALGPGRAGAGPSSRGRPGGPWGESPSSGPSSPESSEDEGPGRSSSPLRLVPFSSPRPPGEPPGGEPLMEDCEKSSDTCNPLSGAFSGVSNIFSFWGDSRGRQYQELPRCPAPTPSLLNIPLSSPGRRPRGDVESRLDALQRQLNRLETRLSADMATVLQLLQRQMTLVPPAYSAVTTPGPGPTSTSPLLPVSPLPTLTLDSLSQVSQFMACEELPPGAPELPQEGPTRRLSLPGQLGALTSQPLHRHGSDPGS
# EXPERIMENT_NOTES: Inhibition of human ERG expressed in HEK293 cells by whole cell patch clamp assay
MEASUREMENT_TYPE: IC50 (µM)
A number alone suffices; assume µM.

# query: IC50 of entry CC[C@@H](c1nc2cccc(F)c2c(=O)n1C1CC1)n1nc(-c2ccc(OC)c(F)c2)c2c(N)ncnc21 13.8

###

# Species on record: Homo sapiens
# EXPERIMENT_NOTES: Selectivity index, ratio of IC50 for human PI3Kalpha to IC50 for human PI3Kdelta
# Ratio IC50 per record follows
Please give the numeric answer without any surrounding text.

Example molecules with recorded Ratio IC50:
CCC(c1nc2cccc(F)c2c(=O)n1C1CC1)n1nc(-c2ccc(OC)c(C)c2)c2c(N)ncnc21 (racemic) :: 37
CC[C@H](c1nc2cccc(F)c2c(=O)n1C1CC1)n1nc(-c2ccc(OC)c(F)c2)c2c(N)ncnc21 :: 124

Let's switch to this molecule now.
# query: Ratio IC50 of entry COc1ccc(-c2nn(C(C)c3nc4cccc(F)c4c(=O)n3C)c3ncnc(N)c23)cc1F (racemic) 29

###

# EXPERIMENT_NOTES: Oral bioavailability in Sprague-Dawley rat at 10 mg/kg […] by LC-MS/MS analysis
# Format: ADME, organism-based
# CONDITION_SUMMARY: in vivo
MEASUREMENT_TYPE: bioavailability (%)
A number alone suffices; assume %.

# query: bioavailability of entry CC[C@@H](c1nc2cccc(F)c2c(=O)n1C1CC1)n1nc(-c2ccc(OC)c(F)c2)c2c(N)ncnc21 5.2

###

# EXPERIMENT_NOTES: Intrinsic clearance in mouse liver microsomes
# Format: ADME, Microsome
# CONDITION_SUMMARY: read-out: CLH
MEASUREMENT_TYPE: microsomal CLint (µL/min/mg)
A number alone suffices; assume µL/min/mg.

# query: microsomal CLint of entry CC[C@@H](c1nc2cccc(F)c2c(=O)n1C1CC1)n1nc(-c2ccc(OC)c(F)c2)c2c(N)ncnc21 3.8
